Test system: COS-7 (African green monkey kidney fibroblast) normal cell line
Assay: sulforhodamine B (SRB) cytotoxicity assay on normal cell line COS-7
Assay type: cell-based
Conditions: nondetectable effect on cell proliferation
measurement label: Non-Cytotoxic concentration on normal cell line COS-7 (µM)
Give just the number in µM; leave the unit off.

Entry CCCCCCC[CH2][Sn]1([CH2]CCCCCCC)[O]c2cc(C)oc(=O)c2C(C)=NN=C(NC)[S]1 [Compound 2b] has what Non-Cytotoxic concentration on normal cell line COS-7?
0.2

Also CC1=NN=C(CN)[S][Sn]([CH]2CCCCC2)([CH]2CCCCC2)[O]c2cc(C)oc(=O)c21 [Compound 2d] , if possible.
0.01

What do we get for CC1=NN=C(N)[S][Sn]([c]2ccccc2)([c]2ccccc2)[O]c2cc(C)oc(=O)c21 [Compound 1c] ?
0.02
